Biological target: POU1 (OCT1 POU domain) (human, UniProt P14859 260-458)
Sequence (P14859 260-458): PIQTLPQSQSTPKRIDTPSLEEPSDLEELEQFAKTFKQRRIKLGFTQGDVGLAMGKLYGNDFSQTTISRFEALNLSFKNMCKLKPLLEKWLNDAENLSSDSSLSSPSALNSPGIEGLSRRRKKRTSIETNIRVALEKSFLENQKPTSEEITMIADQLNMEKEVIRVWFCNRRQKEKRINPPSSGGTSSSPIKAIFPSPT
Experiment: EMSA-SELEX-seq; no BOB1; 20 mM Tris-HCl pH 7.6, 140 mM NaCl, 10% glycerol, 0.5 mM EDTA, 0.05% Triton X-100, 0.1 mg/mL BSA, 0.1 mg/mL poly(dI-dC), 5 mM DTT, room temperature, 20 min; high values mean tight binding
Conditions: protein: recombinant; dsDNA, one strand shown
For each of the sequences below, state its binding signal.

stdin: For the sequence AGACGAAC , give its reported binding signal.
stdout: 0.0202 % of ANNNNAAN 8-mers

stdin: For the sequence ATAAAAAT , give its reported binding signal.
stdout: 0.131 % of ANNNNAAN 8-mers

stdin: For the sequence ACACAAAC , give its reported binding signal.
stdout: 0.0236 % of ANNNNAAN 8-mers

stdin: For the sequence AGGTGAAA , give its reported binding signal.
stdout: 0.0587 % of ANNNNAAN 8-mers

stdin: For the sequence AGTCCAAG , give its reported binding signal.
stdout: 0.0236 % of ANNNNAAN 8-mers

stdin: For the sequence ACATAAAC , give its reported binding signal.
stdout: 0.087 % of ANNNNAAN 8-mers

stdin: For the sequence AAATTAAT , give its reported binding signal.
stdout: 0.415 % of ANNNNAAN 8-mers

stdin: For the sequence AAAAGAAC , give its reported binding signal.
stdout: 0.0351 % of ANNNNAAN 8-mers

stdin: For the sequence AGTATAAG , give its reported binding signal.
stdout: 0.0397 % of ANNNNAAN 8-mers

stdin: For the sequence AGCGGAAA , give its reported binding signal.
stdout: 0.0378 % of ANNNNAAN 8-mers

stdin: For the sequence AGTGGAAC , give its reported binding signal.
stdout: 0.0267 % of ANNNNAAN 8-mers

stdin: For the sequence AACGTAAG , give its reported binding signal.
stdout: 0.0301 % of ANNNNAAN 8-mers

stdin: For the sequence ATTTTAAC , give its reported binding signal.
stdout: 0.0812 % of ANNNNAAN 8-mers

stdin: For the sequence ATGCCAAG , give its reported binding signal.
stdout: 0.0305 % of ANNNNAAN 8-mers

stdin: For the sequence ACAACAAT , give its reported binding signal.
stdout: 0.0248 % of ANNNNAAN 8-mers

stdin: For the sequence ATAAGAAG , give its reported binding signal.
stdout: 0.0614 % of ANNNNAAN 8-mers

stdin: For the sequence AGTTAAAG , give its reported binding signal.
stdout: 0.0545 % of ANNNNAAN 8-mers

stdin: For the sequence ACCGCAAT , give its reported binding signal.
stdout: 0.0164 % of ANNNNAAN 8-mers

stdin: For the sequence ATGTAAAC , give its reported binding signal.
stdout: 0.249 % of ANNNNAAN 8-mers

stdin: For the sequence AGGCCAAA , give its reported binding signal.
stdout: 0.029 % of ANNNNAAN 8-mers

stdin: For the sequence ATAGAAAA , give its reported binding signal.
stdout: 0.0767 % of ANNNNAAN 8-mers

stdin: For the sequence ATATCAAC , give its reported binding signal.
stdout: 0.0481 % of ANNNNAAN 8-mers

stdin: For the sequence AGCGCAAG , give its reported binding signal.
stdout: 0.013 % of ANNNNAAN 8-mers

stdin: For the sequence AAAACAAT , give its reported binding signal.
stdout: 0.0736 % of ANNNNAAN 8-mers

stdin: For the sequence AATGGAAT , give its reported binding signal.
stdout: 0.138 % of ANNNNAAN 8-mers

stdin: For the sequence ATCAGAAG , give its reported binding signal.
stdout: 0.0271 % of ANNNNAAN 8-mers

stdin: For the sequence ACACGAAG , give its reported binding signal.
stdout: 0.0206 % of ANNNNAAN 8-mers

stdin: For the sequence ACAACAAA , give its reported binding signal.
stdout: 0.0301 % of ANNNNAAN 8-mers

stdin: For the sequence ACGCTAAA , give its reported binding signal.
stdout: 0.0305 % of ANNNNAAN 8-mers

stdin: For the sequence AGGAGAAG , give its reported binding signal.
stdout: 0.045 % of ANNNNAAN 8-mers

stdin: For the sequence ATCCGAAA , give its reported binding signal.
stdout: 0.0305 % of ANNNNAAN 8-mers

stdin: For the sequence ATGCAAAT , give its reported binding signal.
stdout: 5.32 % of ANNNNAAN 8-mers

stdin: For the sequence ACGGGAAG , give its reported binding signal.
stdout: 0.0332 % of ANNNNAAN 8-mers

stdin: For the sequence ACCTTAAT , give its reported binding signal.
stdout: 0.0629 % of ANNNNAAN 8-mers

stdin: For the sequence AGTCTAAG , give its reported binding signal.
stdout: 0.0236 % of ANNNNAAN 8-mers

stdin: For the sequence ATACGAAC , give its reported binding signal.
stdout: 0.0343 % of ANNNNAAN 8-mers

stdin: For the sequence ACAGGAAT , give its reported binding signal.
stdout: 0.0622 % of ANNNNAAN 8-mers

stdin: For the sequence ATTCGAAC , give its reported binding signal.
stdout: 0.0351 % of ANNNNAAN 8-mers

stdin: For the sequence AAATAAAT , give its reported binding signal.
stdout: 0.261 % of ANNNNAAN 8-mers

stdin: For the sequence ATTAGAAG , give its reported binding signal.
stdout: 0.0786 % of ANNNNAAN 8-mers

stdin: For the sequence AGGACAAG , give its reported binding signal.
stdout: 0.0263 % of ANNNNAAN 8-mers

stdin: For the sequence ACTATAAA , give its reported binding signal.
stdout: 0.0439 % of ANNNNAAN 8-mers

stdin: For the sequence ACACGAAT , give its reported binding signal.
stdout: 0.0347 % of ANNNNAAN 8-mers

stdin: For the sequence ATGGAAAA , give its reported binding signal.
stdout: 0.233 % of ANNNNAAN 8-mers

stdin: For the sequence AGCATAAC , give its reported binding signal.
stdout: 0.082 % of ANNNNAAN 8-mers

stdin: For the sequence ATGATAAC , give its reported binding signal.
stdout: 0.0339 % of ANNNNAAN 8-mers
